- measuredTarget: PDIA1 (Homo sapiens)
- Sequence (P07237 18-508): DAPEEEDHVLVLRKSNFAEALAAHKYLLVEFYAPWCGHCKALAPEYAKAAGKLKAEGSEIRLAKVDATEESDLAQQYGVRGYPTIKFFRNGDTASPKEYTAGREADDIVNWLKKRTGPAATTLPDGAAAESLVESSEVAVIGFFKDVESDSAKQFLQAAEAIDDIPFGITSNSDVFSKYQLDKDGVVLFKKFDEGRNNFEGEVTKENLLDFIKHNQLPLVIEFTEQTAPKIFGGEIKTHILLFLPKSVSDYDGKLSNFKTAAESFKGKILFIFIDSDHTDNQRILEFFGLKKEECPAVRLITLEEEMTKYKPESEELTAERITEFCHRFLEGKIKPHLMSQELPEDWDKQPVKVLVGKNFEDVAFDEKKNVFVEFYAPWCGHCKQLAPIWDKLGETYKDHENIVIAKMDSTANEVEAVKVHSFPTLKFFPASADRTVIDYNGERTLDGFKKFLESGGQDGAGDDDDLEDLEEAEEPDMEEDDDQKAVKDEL
- experimentSummary: Glutathione competition in PDI reductase assay
- Type: biochemical
- runParameters: 5 mM GSH
assayEndpoint: PDI inhibition in the presence of competing glutathione

INSERT INTO assay_data (molecule, result) VALUES
  ('N#Cc1cccc(/C=C/C(=O)c2ccc(O)cc2)c1 [BAP2, reference compound]', 'remained active'),
  ('O=c1c(O[C@@H]2O[C@H](CO)[C@@H](O)[C@H](O)[C@H]2O)c(-c2ccc(O)c(O)c2)oc2cc(O)cc(O)c12 [isoquercetin, reference compound]', 'remained active'),
  ('CN(C)c1ccc(C(Nc2ncccn2)c2cc3c(cc2O)OCO3)cc1 (centres unmarked)', 'maintained potency'),
  ('Oc1c(C(c2ccc(F)cc2)N2CCNCC2)ccc2cncnc12 (centres unmarked)', 'maintained potency');
